Values were extracted from patent US20190144529A1.

biological target: T1, human serum albumin (human, UniProt P02768 25-609); assay: SPR, Fab captured; albumin taken as HSA;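 note: antibody held on a capture surface, albumin injected for 3 min association then dissociation followed, signals corrected using a blank reference flow cell and buffer-only injections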
T1 construct: mature; Bought purified serum albumin; also called HSA; Human albumin
Outcome measure: koff (s⁻¹)
Give your result in s⁻¹ as a bare value.

Examples from the recorded data:
Binder	koff, s⁻¹
CA645 gL34gH5 Fab (Fab, V domains shown, Fab: human gamma1 CH1, human kappa (Km3); Kabat numbering) VH: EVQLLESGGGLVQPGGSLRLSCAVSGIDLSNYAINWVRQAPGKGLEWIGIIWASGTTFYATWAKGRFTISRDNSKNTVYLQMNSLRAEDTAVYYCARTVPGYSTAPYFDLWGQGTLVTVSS VL: DIQMTQSPSSVSASVGDRVTITCQSSPSVWSNFLSWYQQKPGKAPKLLIYEASKLTSGVPSRFSGSGSGTDFTLTISSLQPEDFATYYCGGGYTSISDTTFGGGTKVEIK	0.00019
CA645 gL4gH28 Fab (Fab, V domains shown, Fab: human gamma1 CH1, human kappa (Km3); Kabat numbering) VH: EVQLLESGGGLVQPGGSLRLSCAVSGIDLSNYAINWVRQAPGKGLEWIGIIWVSGTTFYATWAKGRFTISRDNSKNTVYLQMNSLRAEDTAVYYCARTVPGYSTAPYFDLWGQGTLVTVSS VL: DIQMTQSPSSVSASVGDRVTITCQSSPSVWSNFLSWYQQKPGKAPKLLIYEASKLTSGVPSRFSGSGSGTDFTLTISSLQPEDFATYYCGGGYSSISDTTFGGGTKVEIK	0.000515

// switching to the query binder
What does the data say about its koff? Entry: CA645 gL13gH5 Fab (Fab, V domains shown, Fab: human gamma1 CH1, human kappa (Km3); Kabat numbering) VH: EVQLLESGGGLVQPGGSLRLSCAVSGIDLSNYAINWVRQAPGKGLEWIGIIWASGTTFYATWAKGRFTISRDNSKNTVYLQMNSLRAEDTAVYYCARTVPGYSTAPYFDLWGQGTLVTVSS VL: DIQMTQSPSSVSASVGDRVTITCQSSPIVWSNFLSWYQQKPGKAPKLLIYEASKLTSGVPSRFSGSGSGTDFTLTISSLQPEDFATYYCGGGYSSISDTTFGGGTKVEIK
0.000108
